- Target or system: vanilloid receptor 1 (VR1/TRPV1) of the rat species (Rattus norvegicus)
- Construct: The spinal column is removed from beheaded rats; from tissue; host or cells: primary cells from rat dorsal root ganglia (DRGs)
- Sequence (O35433 whole entry): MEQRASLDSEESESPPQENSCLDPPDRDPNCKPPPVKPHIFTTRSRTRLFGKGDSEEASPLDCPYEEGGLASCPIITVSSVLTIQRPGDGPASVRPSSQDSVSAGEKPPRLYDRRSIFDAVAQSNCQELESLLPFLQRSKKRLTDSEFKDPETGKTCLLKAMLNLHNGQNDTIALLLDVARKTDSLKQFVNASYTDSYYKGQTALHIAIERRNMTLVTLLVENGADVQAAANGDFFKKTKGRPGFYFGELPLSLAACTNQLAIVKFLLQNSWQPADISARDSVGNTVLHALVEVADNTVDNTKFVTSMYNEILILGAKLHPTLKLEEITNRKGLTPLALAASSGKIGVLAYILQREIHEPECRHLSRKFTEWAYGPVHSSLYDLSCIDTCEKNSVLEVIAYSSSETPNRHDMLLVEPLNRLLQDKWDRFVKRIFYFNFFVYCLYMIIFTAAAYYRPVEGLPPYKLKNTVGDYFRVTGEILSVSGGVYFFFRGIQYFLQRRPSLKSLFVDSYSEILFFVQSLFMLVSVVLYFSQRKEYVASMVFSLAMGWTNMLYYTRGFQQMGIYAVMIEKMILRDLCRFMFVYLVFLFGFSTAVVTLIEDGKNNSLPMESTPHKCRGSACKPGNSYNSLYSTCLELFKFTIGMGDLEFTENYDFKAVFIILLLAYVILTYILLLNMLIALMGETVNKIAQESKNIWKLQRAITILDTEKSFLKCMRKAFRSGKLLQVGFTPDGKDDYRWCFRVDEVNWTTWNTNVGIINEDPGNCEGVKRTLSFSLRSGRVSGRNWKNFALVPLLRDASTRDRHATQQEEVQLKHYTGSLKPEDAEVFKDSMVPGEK
- Protocol summary: Functional study on vanilloid receptor 1, FLIPR Ca2+ assay in rat dorsal root ganglia cells
- Assay type: cell-based
- Assay setup: test compound 10 μM; Ca2+ signal relative to 10 μM capsaicin (CP)
Measured attribute: VR1 (rat) (% stimulation compared to 10 μM CP) (%)

{"Compound": "CC(C)(C)c1ccc(C=C2SC(N3CCOCC3)=NC2=O)cc1 [Example 197]", "Readout value": 63.86}
{"Compound": "O=C1N=C(N2CCOCC2)SC1=Cc1cccc(C(F)(F)F)c1", "Readout value": 76.51}
{"Compound": "Br.O=C1N=C(N2CCSCC2)SC1=CC=Cc1ccccc1", "Readout value": 51.35}
{"Compound": "CC(C)c1ccc(C=C2SC(N3CCOCC3)=NC2=O)cc1", "Readout value": 79.68}

P: O=C1N=C(N2CCSCC2)SC1=CC=Cc1ccccc1
Q: Br.CC(C)c1ccc(C=C2SC(N3CCOCC3)=NC2=O)cc1
## Input I'm curious, which of these has a smaller VR1 (rat) (% stimulation compared to 10 μM CP) number: P or Q ? Refer to your chosen entry by its label in the reply.
## Output Q
(Q: 41.89%, P: 80.77%)

a: CC(C)(C)c1ccc(C=C2SC(N3CCOCC3)=NC2=O)cc1 [Example 222]
b: Cc1ccc(C=C2SC(N3CCOCC3)=NC2=O)cc1
## Input Identify the entry with the larger VR1 (rat) (% stimulation compared to 10 μM CP). Options: a and b # respond with the chosen item's label
## Output a
